# Target of assay: ActRIIA and ActRIIB (on TGFB/SMAD SBE Reporter HEK293 cells) (human)
# Sequence (chain, as listed by the source, chain 1 of 2): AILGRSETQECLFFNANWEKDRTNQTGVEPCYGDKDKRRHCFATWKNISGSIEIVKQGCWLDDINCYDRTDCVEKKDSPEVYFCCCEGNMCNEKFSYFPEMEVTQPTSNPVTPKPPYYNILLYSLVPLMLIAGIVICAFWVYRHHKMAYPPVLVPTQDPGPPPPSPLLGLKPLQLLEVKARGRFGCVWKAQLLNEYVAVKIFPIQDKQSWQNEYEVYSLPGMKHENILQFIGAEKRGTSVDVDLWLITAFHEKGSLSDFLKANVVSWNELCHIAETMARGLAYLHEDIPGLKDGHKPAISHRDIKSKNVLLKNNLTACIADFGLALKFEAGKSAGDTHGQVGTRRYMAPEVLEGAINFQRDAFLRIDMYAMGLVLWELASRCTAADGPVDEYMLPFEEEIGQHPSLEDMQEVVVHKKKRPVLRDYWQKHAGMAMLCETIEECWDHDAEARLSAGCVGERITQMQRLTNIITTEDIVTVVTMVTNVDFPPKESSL
# Sequence (chain, as listed by the source, chain 2 of 2): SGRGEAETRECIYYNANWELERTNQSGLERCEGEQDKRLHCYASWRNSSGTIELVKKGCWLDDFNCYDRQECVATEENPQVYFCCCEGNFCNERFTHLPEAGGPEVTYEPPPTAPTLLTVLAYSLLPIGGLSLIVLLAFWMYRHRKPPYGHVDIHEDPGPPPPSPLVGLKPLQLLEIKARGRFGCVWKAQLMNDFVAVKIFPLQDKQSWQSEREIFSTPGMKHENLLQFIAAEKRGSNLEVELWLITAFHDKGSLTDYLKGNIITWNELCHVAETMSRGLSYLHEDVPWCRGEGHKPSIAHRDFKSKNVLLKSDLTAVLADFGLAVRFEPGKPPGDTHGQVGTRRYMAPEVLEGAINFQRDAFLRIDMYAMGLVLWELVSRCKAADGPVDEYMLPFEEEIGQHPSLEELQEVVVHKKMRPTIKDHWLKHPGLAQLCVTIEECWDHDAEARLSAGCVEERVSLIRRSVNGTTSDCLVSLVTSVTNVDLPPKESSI
# Method summary: cell-based or functional assay
Endpoint label: IC99, Activin SMAD RGA
Remember to follow the number with its unit.

## Input Report IC99, Activin SMAD RGA, nothing else, for this binder: Antibody Soidawürstle (antibody, V domains shown, full-length IgG; also called Soidawüsrstel) VH: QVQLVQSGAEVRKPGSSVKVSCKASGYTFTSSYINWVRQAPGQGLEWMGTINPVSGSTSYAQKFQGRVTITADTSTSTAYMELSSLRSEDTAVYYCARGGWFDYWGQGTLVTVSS VL: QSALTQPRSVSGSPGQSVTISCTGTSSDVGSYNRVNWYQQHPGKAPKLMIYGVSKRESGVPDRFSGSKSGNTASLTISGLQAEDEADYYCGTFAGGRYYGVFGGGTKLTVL
## Output 19.3 nM

Below are 3 binders. Give each one its IC99, Activin SMAD RGA.
1. Bimagrumab (antibody, V domains shown) VH: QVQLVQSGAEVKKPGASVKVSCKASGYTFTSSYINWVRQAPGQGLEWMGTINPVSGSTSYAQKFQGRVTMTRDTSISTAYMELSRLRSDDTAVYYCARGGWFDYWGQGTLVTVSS VL: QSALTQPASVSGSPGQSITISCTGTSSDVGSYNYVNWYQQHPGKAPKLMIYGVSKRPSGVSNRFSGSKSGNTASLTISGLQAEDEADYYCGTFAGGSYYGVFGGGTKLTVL
2. Antibody Ofaschlupfer (antibody, V domains shown, full-length IgG) VH: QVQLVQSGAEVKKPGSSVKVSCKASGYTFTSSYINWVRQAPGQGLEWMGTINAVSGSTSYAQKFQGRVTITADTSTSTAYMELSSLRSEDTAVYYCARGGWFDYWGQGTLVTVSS VL: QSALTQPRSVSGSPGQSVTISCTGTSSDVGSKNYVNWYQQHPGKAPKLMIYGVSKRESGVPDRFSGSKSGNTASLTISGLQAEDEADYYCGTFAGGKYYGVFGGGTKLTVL
3. Antibody Schwardamaga (antibody, V domains shown, full-length IgG) VH: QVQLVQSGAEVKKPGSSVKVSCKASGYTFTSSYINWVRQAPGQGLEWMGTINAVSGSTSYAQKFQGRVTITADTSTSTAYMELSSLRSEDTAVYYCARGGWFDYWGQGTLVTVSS VL: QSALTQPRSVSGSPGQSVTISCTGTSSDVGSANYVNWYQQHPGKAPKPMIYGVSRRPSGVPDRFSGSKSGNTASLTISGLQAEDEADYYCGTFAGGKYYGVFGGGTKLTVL

## Output
1: 206 nM; 2: 47.8 nM; 3: 99 nM

Value source: patent US20250243286A1
